src = paper PMC3913857

ASSAY OVERVIEW: Pharmacokinetics: plasma concentration of regorafenib, M2 and M5 (LC-MS/MS) after single and multiple dosing
Set-up: species or system Japanese patients
ASSAY CONTEXT: human, in vivo; Cycle 1 day 21, regorafenib 160 mg once daily for 21 days; N = 12; geometric mean (% coefficient of variance); read-out: C max
PROPERTY MEASURED: Cmax (ng/mL)
Only the number, expressed in ng/mL, is required.

Prompt: Can you look up the measured Cmax of CNC(=O)c1cc(Oc2ccc(NC(=O)Nc3ccc(Cl)c(C(F)(F)F)c3)c(F)c2)ccn1 for me?
Completion: 2520

====

ASSAY OVERVIEW: Pharmacokinetics: plasma concentration of regorafenib, M2 and M5 (LC-MS/MS) after single and multiple dosing
Set-up: species or system Japanese patients
ASSAY CONTEXT: human, in vivo; Cycle 1 day 21, regorafenib 160 mg once daily for 21 days; N = 12; geometric mean (% coefficient of variance); read-out: AUC0–24
PROPERTY MEASURED: AUC(0-t)

Prompt: Requested field: AUC(0-t). Item: CNC(=O)c1cc(Oc2ccc(NC(=O)Nc3ccc(Cl)c(C(F)(F)F)c3)c(F)c2)ccn1 [Regorafenib]
Completion: 33000 ng·h/mL

====

ASSAY OVERVIEW: Pharmacokinetics: plasma concentration of regorafenib, M2 and M5 (LC-MS/MS) after single and multiple dosing
Parameters: species or system Japanese patients
ASSAY CONTEXT: human, in vivo; Cycle 1 day 21, regorafenib 160 mg once daily for 21 days; N = 12; geometric mean (% coefficient of variance); read-out: t 1/2 (terminal half life) (converted)
PROPERTY MEASURED: half-life (min)
The figure you give is taken to be in min; do not add the unit.

Prompt: Please look up its half-life: CNC(=O)c1cc(Oc2ccc(NC(=O)Nc3ccc(Cl)c(C(F)(F)F)c3)c(F)c2)ccn1 [Regorafenib]
Completion: 1820

====

ASSAY OVERVIEW: clinical
Design: species or system Japanese patients
ASSAY CONTEXT: human, in vivo, po, 160 mg, t 1/2 (terminal half life)
PROPERTY MEASURED: half-life

Prompt: // half-life lookup, key: CNC(=O)c1cc(Oc2ccc(NC(=O)Nc3ccc(Cl)c(C(F)(F)F)c3)c(F)c2)ccn1
Completion: ~27 h
